# collection of AC50 values tested on Growth hormone secretagogue receptor type 1 (Homo sapiens, UniProt Q92847); also: assay procedure not described here
# Sequence (Q92847 whole entry): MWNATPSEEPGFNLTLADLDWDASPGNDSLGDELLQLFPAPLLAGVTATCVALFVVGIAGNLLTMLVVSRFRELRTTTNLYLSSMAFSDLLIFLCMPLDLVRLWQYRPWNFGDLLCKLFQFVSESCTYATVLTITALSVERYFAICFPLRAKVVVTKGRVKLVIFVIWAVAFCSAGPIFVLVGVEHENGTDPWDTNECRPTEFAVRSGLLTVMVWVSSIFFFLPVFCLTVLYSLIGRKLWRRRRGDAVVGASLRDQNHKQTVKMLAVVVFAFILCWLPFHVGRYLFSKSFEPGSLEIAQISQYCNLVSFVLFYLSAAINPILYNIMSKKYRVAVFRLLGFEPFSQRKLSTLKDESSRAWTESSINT

## Task Fetch value of AC50 on Growth hormone secretagogue receptor type 1 (Homo sapiens, UniProt Q92847) for NS(=O)(=O)c1cc(Cl)c(Cl)c(S(N)(=O)=O)c1 [DICHLORPHENAMIDE] .
## Result > 10 µM

## Task Fetch value of AC50 on Growth hormone secretagogue receptor type 1 (Homo sapiens, UniProt Q92847) for CCN(CC)CCNC(=O)c1cc(Cl)c(N)cc1OC [METOCLOPRAMIDE] .
## Result > 30 µM

## Task Fetch value of AC50 on Growth hormone secretagogue receptor type 1 (Homo sapiens, UniProt Q92847) for CN(C)[C@@H]1C(O)=C(C(N)=O)C(=O)[C@@]2(O)C(O)=C3C(=O)c4c(O)ccc(Cl)c4[C@@H](O)[C@H]3C[C@@H]12 [DEMECLOCYCLINE] .
## Result > 10 µM

## Task Fetch value of AC50 on Growth hormone secretagogue receptor type 1 (Homo sapiens, UniProt Q92847) for NC1=NC(=O)C(c2ccccc2)O1 (centres undefined) [PEMOLINE] .
## Result > 30 µM

## Task Fetch value of AC50 on Growth hormone secretagogue receptor type 1 (Homo sapiens, UniProt Q92847) for CC(C)NNC(=O)c1ccncc1 [IPRONIAZID] .
## Result > 30 µM

## Task Fetch value of AC50 on Growth hormone secretagogue receptor type 1 (Homo sapiens, UniProt Q92847) for C[C@H]1C[C@@H]2[C@H]([C@@H](O)C[C@@]3(C)[C@H]2CC[C@]3(O)C(=O)CO)[C@@]2(C)C=CC(=O)C=C12 [METHYLPREDNISOLONE] .
## Result > 10 µM

## Task Fetch value of AC50 on Growth hormone secretagogue receptor type 1 (Homo sapiens, UniProt Q92847) for COc1c(C)c2c(c(O)c1C/C=C(\C)CCC(=O)OCCN1CCOCC1)C(=O)OC2 [MYCOPHENOLATE MOFETIL] .
## Result > 30 µM

## Task Fetch value of AC50 on Growth hormone secretagogue receptor type 1 (Homo sapiens, UniProt Q92847) for C#CCN[C@@H]1CCc2ccccc21 [RASAGILINE] .
## Result > 30 µM

## Task Fetch value of AC50 on Growth hormone secretagogue receptor type 1 (Homo sapiens, UniProt Q92847) for CC(C)NCC(O)COc1ccc(COCCOC(C)C)cc1 (centres undefined) [BISOPROLOL] .
## Result > 30 µM
